Assay: Solubility of dronedarone hydrochloride and base form in lipid excipients (Table A)
Assay type: physicochemical
Details: Cremophor RH 40 (HLB 14), 55 °C, oil or lipid, in Cremophor RH 40 (HLB 14), 55° C.; read-out: Solubility
Measurement name: solubility (mg/mL)
Record the value in mg/mL, omitting the unit from your answer.

[Q] # solubility lookup, item CCCCc1oc2ccc(NS(C)(=O)=O)cc2c1C(=O)c1ccc(OCCCN(CCCC)CCCC)cc1.Cl [Dronedarone Hydrochloride]
[A] 14.8

----------
Assay: Solubility of dronedarone hydrochloride and base form in lipid excipients (Table A)
Assay type: physicochemical
Settings: Labrasol, oil or lipid, in Labrasol, RT; read-out: Solubility
Measurement name: solubility

[Q] # solubility lookup, item CCCCc1oc2ccc(NS(C)(=O)=O)cc2c1C(=O)c1ccc(OCCCN(CCCC)CCCC)cc1 [Dronedarone Base]
[A] > 400 mg/mL

----------
Assay: Solubility of dronedarone hydrochloride and base form in lipid excipients (Table A)
Assay type: physicochemical
Settings: Gelucire 44/14 (HLB 14), 55 °C, oil or lipid, in Gelucire 44/14 (HLB 14), 55° C.; read-out: Solubility
Measurement name: solubility (mg/mL)
Record the value in mg/mL, omitting the unit from your answer.

[Q] # solubility lookup, item CCCCc1oc2ccc(NS(C)(=O)=O)cc2c1C(=O)c1ccc(OCCCN(CCCC)CCCC)cc1 [Dronedarone Base]
[A] 633

----------
Experiment: Solubility of dronedarone hydrochloride and base form in lipid excipients (Table A)
Type: physicochemical
Conditions: Crodamol EO (ethyl oleate), oil or lipid, in Crodamol EO (ethyl oleate), RT; read-out: Solubility
Measurement name: solubility (mg/mL)
Record the value in mg/mL, omitting the unit from your answer.

[Q] # solubility lookup, item `CCCCc1oc2ccc(NS(C)(=O)=O)cc2c1C(=O)c1ccc(OCCCN(CCCC)CCCC)cc1`
[A] 154

----------
Test: Solubility of dronedarone hydrochloride and base form in lipid excipients (Table A)
Assay type: physicochemical
Conditions: oleic acid, oil or lipid, in Oleic acid, RT; read-out: Solubility
Measurement name: solubility

[Q] # solubility lookup, item `CCCCc1oc2ccc(NS(C)(=O)=O)cc2c1C(=O)c1ccc(OCCCN(CCCC)CCCC)cc1`
[A] > 341 mg/mL

----------
Give measured solubility for each item. Keep answers brief.
Experiment: Solubility of dronedarone hydrochloride and base form in lipid excipients (Table A)
Assay type: physicochemical
Settings: Captex 355, oil or lipid, in Captex 355, RT; read-out: Solubility
Record the value in mg/mL, omitting the unit from your answer.

[Q] # solubility lookup, item CCCCc1oc2ccc(NS(C)(=O)=O)cc2c1C(=O)c1ccc(OCCCN(CCCC)CCCC)cc1.Cl [Dronedarone Hydrochloride]
[A] 0.0353

[Q] # solubility lookup, item `CCCCc1oc2ccc(NS(C)(=O)=O)cc2c1C(=O)c1ccc(OCCCN(CCCC)CCCC)cc1`
[A] 167

----------
Assay: Solubility of dronedarone hydrochloride and base form in lipid excipients (Table A)
Type: physicochemical
Details: propylene glycol, organic solvent or mixture, in propylene glycol, RT; read-out: Solubility
Give measured solubility for each item. Keep answers brief.
Record the value in mg/mL, omitting the unit from your answer.

[Q] # solubility lookup, item `CCCCc1oc2ccc(NS(C)(=O)=O)cc2c1C(=O)c1ccc(OCCCN(CCCC)CCCC)cc1`
[A] 18.2

[Q] # solubility lookup, item CCCCc1oc2ccc(NS(C)(=O)=O)cc2c1C(=O)c1ccc(OCCCN(CCCC)CCCC)cc1.Cl [Dronedarone Hydrochloride]
[A] 15.8

----------
Test: Solubility of dronedarone hydrochloride and base form in lipid excipients (Table A)
Format: physicochemical
Conditions: Labrafil M1944Cs, oil or lipid, in Labrafil M1944Cs, RT; read-out: Solubility
Measurement name: solubility (mg/mL)
Record the value in mg/mL, omitting the unit from your answer.

[Q] # solubility lookup, item CCCCc1oc2ccc(NS(C)(=O)=O)cc2c1C(=O)c1ccc(OCCCN(CCCC)CCCC)cc1.Cl [Dronedarone Hydrochloride]
[A] 0.504

[Q] # solubility lookup, item `CCCCc1oc2ccc(NS(C)(=O)=O)cc2c1C(=O)c1ccc(OCCCN(CCCC)CCCC)cc1`
[A] 208

----------
Test: Solubility of dronedarone hydrochloride and base form in lipid excipients (Table A)
Assay type: physicochemical
Conditions: PEG 400, organic solvent or mixture, in PEG 400, RT; read-out: Solubility
Give measured solubility for each item. Keep answers brief.
Record the value in mg/mL, omitting the unit from your answer.

[Q] # solubility lookup, item CCCCc1oc2ccc(NS(C)(=O)=O)cc2c1C(=O)c1ccc(OCCCN(CCCC)CCCC)cc1 [Dronedarone Base]
[A] 273

[Q] # solubility lookup, item CCCCc1oc2ccc(NS(C)(=O)=O)cc2c1C(=O)c1ccc(OCCCN(CCCC)CCCC)cc1.Cl [Dronedarone Hydrochloride]
[A] 13.2

----------
Assay: Solubility of dronedarone hydrochloride and base form in lipid excipients (Table A)
Type: physicochemical
Conditions: soybean oil, oil or lipid, in soybean oil, RT; read-out: Solubility
Measurement name: solubility (mg/mL)
Record the value in mg/mL, omitting the unit from your answer.

[Q] # solubility lookup, item CCCCc1oc2ccc(NS(C)(=O)=O)cc2c1C(=O)c1ccc(OCCCN(CCCC)CCCC)cc1 [Dronedarone Base]
[A] 60.7

[Q] # solubility lookup, item CCCCc1oc2ccc(NS(C)(=O)=O)cc2c1C(=O)c1ccc(OCCCN(CCCC)CCCC)cc1.Cl [Dronedarone Hydrochloride]
[A] 0.0231

----------
Assay: Solubility of dronedarone hydrochloride and base form in lipid excipients (Table A)
Type: physicochemical
Conditions: sweet almond oil, oil or lipid, in sweet almond oil, RT; read-out: Solubility
Measurement name: solubility

[Q] # solubility lookup, item CCCCc1oc2ccc(NS(C)(=O)=O)cc2c1C(=O)c1ccc(OCCCN(CCCC)CCCC)cc1 [Dronedarone Base]
[A] 45.2 mg/mL

----------
Give measured solubility for each item. Keep answers brief.
Test: Solubility of dronedarone hydrochloride and base form in lipid excipients (Table A)
Format: physicochemical
Settings: Capmul PG8 (HLB 5), oil or lipid, in Capmul PG8 (HLB 5), RT; read-out: Solubility
Record the value in mg/mL, omitting the unit from your answer.

[Q] # solubility lookup, item CCCCc1oc2ccc(NS(C)(=O)=O)cc2c1C(=O)c1ccc(OCCCN(CCCC)CCCC)cc1.Cl [Dronedarone Hydrochloride]
[A] 10

[Q] # solubility lookup, item CCCCc1oc2ccc(NS(C)(=O)=O)cc2c1C(=O)c1ccc(OCCCN(CCCC)CCCC)cc1 [Dronedarone Base]
[A] 517

----------
Give measured solubility for each item. Keep answers brief.
Test: Solubility of dronedarone hydrochloride and base form in lipid excipients (Table A)
Format: physicochemical
Conditions: Labrasol ALF, oil or lipid, in Labrasol ALF, RT; read-out: Solubility
Record the value in mg/mL, omitting the unit from your answer.

[Q] # solubility lookup, item CCCCc1oc2ccc(NS(C)(=O)=O)cc2c1C(=O)c1ccc(OCCCN(CCCC)CCCC)cc1 [Dronedarone Base]
[A] 401

[Q] # solubility lookup, item CCCCc1oc2ccc(NS(C)(=O)=O)cc2c1C(=O)c1ccc(OCCCN(CCCC)CCCC)cc1.Cl [Dronedarone Hydrochloride]
[A] 4.84

----------
Give measured solubility for each item. Keep answers brief.
Assay: Solubility of dronedarone hydrochloride and base form in lipid excipients (Table A)
Format: physicochemical
Settings: Labrafac PG, oil or lipid, in Labrafac PG, RT; read-out: Solubility
Record the value in mg/mL, omitting the unit from your answer.

[Q] # solubility lookup, item CCCCc1oc2ccc(NS(C)(=O)=O)cc2c1C(=O)c1ccc(OCCCN(CCCC)CCCC)cc1 [Dronedarone Base]
[A] 184

[Q] # solubility lookup, item CCCCc1oc2ccc(NS(C)(=O)=O)cc2c1C(=O)c1ccc(OCCCN(CCCC)CCCC)cc1.Cl [Dronedarone Hydrochloride]
[A] 0.0416

----------
Give measured solubility for each item. Keep answers brief.
Assay: Solubility of dronedarone hydrochloride and base form in lipid excipients (Table A)
Format: physicochemical
Settings: Lauroglycol 90, oil or lipid, in Lauroglycol 90, RT; read-out: Solubility
Record the value in mg/mL, omitting the unit from your answer.

[Q] # solubility lookup, item `CCCCc1oc2ccc(NS(C)(=O)=O)cc2c1C(=O)c1ccc(OCCCN(CCCC)CCCC)cc1`
[A] 311

[Q] # solubility lookup, item CCCCc1oc2ccc(NS(C)(=O)=O)cc2c1C(=O)c1ccc(OCCCN(CCCC)CCCC)cc1.Cl [Dronedarone Hydrochloride]
[A] 2.09

Where do these numbers come from? They come from patent US9018250B2.
